Attribution: patent US20190071490A1

Below, each entry is listed alongside its reported Kd.
Biological target: T1, human α-CGRP 1-37 (WT) (human, C-terminal amide; N-terminal biotin when captured on the SA chip; 125I-labelled in the radioligand assay)
T1 construct: also called α-human
T1 peptide: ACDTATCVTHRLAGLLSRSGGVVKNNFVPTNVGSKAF
Assay: Biacore, 37°C, Fab over CGRP on SA chip
Description: Biacore assay for affinity determination. […] All Biacore assays were conducted in HBS-EP running buffer (10 mM HEPES pH 7.4, 150 mM NaCl, 3 mM EDTA, 0.005% v/v polysorbate P20). CGRP surfaces were prepared by diluting the N-biotinylated CGRP to a concentration of less than 0.001 mg/mL into HBS-EP buffer and injecting it across the SA sensor chip using variable contact times. […] Samples were typically injected for 1 minute at 100 μL/min and dissociation times of at least 10 minutes were allowed. […]
readoutType: Kd (nM)

binder: G1 variant M55 Fab (Fab, V domains shown, Fab; constant domains as m1) VH: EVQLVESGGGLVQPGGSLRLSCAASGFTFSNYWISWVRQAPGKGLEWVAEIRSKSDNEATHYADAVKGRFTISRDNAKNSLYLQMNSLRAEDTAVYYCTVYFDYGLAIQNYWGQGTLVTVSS VL: EIVLTQSPATLSLSPGERATLSCKASKNVATYVSWYQQKPGQAPRLLIYGASNRYSGIPARFSGSGSGTDFTLTISSLEPEDFAVYYCSQSYNYPYTFGQGTKLEIK
reportedValue: 2.99
--
binder: G1 variant M40 Fab (Fab, V domains shown, Fab; constant domains as m1) VH: EVQLVESGGGLVQPGGSLRLSCAASGFTFSNYWISWVRQAPGKGLEWVAEIRSKSDLSATHYAEAVKGRFTISRDNAKNSLYLQMNSLRAEDTAVYYCTVYFDYGLAIQNYWGQGTLVTVSS VL: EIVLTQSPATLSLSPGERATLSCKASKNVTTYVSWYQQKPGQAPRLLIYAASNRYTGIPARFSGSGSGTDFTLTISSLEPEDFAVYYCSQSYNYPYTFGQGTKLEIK
reportedValue: 8
--
binder: G1 variant M59 Fab (Fab, V domains shown, Fab; constant domains as m1) VH: EVQLVESGGGLVQPGGSLRLSCAASGFTFSNYWISWVRQAPGKGLEWVAEIRSKSDNNATFYAEAVKGRFTISRDNAKNSLYLQMNSLRAEDTAVYYCTVYFDYGLAIQNYWGQGTLVTVSS VL: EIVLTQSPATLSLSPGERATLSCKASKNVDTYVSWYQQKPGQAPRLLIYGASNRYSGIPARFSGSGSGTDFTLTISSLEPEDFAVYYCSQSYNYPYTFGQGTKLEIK
reportedValue: 3.28
--
binder: G1 variant M80 Fab (Fab, V domains shown, Fab; constant domains as m1; printed L561 read as L56I) VH: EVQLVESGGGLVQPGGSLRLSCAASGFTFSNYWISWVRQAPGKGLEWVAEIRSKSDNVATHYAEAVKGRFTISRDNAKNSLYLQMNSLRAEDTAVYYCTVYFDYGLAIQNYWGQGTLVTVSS VL: EIVLTQSPATLSLSPGERATLSCKASKNVSTYVSWYQQKPGQAPRLLIYGASNRYIGIPARFSGSGSGTDFTLTISSLEPEDFAVYYCSQSYNYPYTFGQGTKLEIK
reportedValue: 13.1
--
binder: G1 variant M5 Fab (Fab, V domains shown, Fab; constant domains as m1) VH: EVQLVESGGGLVQPGGSLRLSCAASGFTFSNYWISWVRQAPGKGLEWVAEIRSESDASATHYAEAVKGRFTISRDNAKNSLYLQMNSLRAEDTAVYYCAYYFDYGLAIQNYWGQGTLVTVSS VL: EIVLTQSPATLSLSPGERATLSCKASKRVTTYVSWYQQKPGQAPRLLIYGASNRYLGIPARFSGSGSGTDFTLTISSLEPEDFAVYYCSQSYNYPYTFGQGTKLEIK
reportedValue: 0.2
